System: SF-295 CNS
Experiment Notes: NCI tumour cell line growth inhibition, 48 h
Measured Endpoint: TGI (µM)

[[record]]
compound = "Nc1ccccc1C(=O)NNC(=O)c1ccccc1N"
measured_endpoint = "TGI"
qual = ">"
experimental_value = 100

[[record]]
compound = "CCN(CC)CCN1CCN=c2c3cc(OC)ccc3n3cnc4ccc1c2c43"
measured_endpoint = "TGI"
qual = "="
experimental_value = 2.32

[[record]]
compound = "OC1OC(c2ccc[nH]2)C(F)(F)C(F)(F)C1(F)F (stereo not given)"
measured_endpoint = "TGI"
qual = ">"
experimental_value = 100

[[record]]
compound = "CC(=O)/C(=C/N1C(=O)CC(=O)NC1=S)C(=O)Nc1ccccc1C"
measured_endpoint = "TGI"
qual = ">"
experimental_value = 100

[[record]]
compound = "CC(=O)Oc1cc2c(=O)oc3c(OC(C)=O)c(OC(C)=O)c(OC(C)=O)c4c(=O)oc(c1OC(C)=O)c2c34"
measured_endpoint = "TGI"
qual = "="
experimental_value = 52.9

